Data provenance is patent US20050101595A1.

Target: CDK2/Cyclin A (Homo sapiens)
Assay: Inhibition of CDK2/Cyclin A Retinoblastoma Kinase Activity
Conditions: apparent Ki, CDK2/proteolyzed cyclin A, Rb fragment substrate, 25 μM ATP
pKi: −log10 of the molar value. Where a name gives a salt, the structure may show the parent alone.
Known pKi of a selection of molecules

[
  {
    "molecule": "Nc1nc(NC2CCN(S(=O)(=O)c3ccc(S)nc3)CC2)sc1C(=O)c1c(F)cccc1F [Example L4, Hydrochloride]",
    "pKi": 9.52
  },
  {
    "molecule": "CN1CC[C@@H](c2ccc(S(=O)(=O)N3CCC(Nc4nc(N)c(C(=O)c5c(F)cccc5F)s4)CC3)cc2)C1 [Example F53]",
    "pKi": 8.89
  },
  {
    "molecule": "Nc1nc(NC2CCN(S(=O)(=O)c3ccc(CCNc4cccc(O)c4)nc3)CC2)sc1C(=O)c1c(F)cccc1F [Example N6, Hydrochloride Salt]",
    "pKi": 9.52
  }
]

* * *

Tested on: HCT-116 cell line
Experiment: Inhibition of cell growth, tetrazolium salt (MTT) assay
Assay type: cell-based
Settings: Homo sapiens, HCT-116, 120 h, first HCT-116 column (c4); MTT, three to five days; read-out: HCT-116 IC50
Where a name gives a salt, the structure may show the parent alone.
Known IC50 of a selection of compounds

[
  {
    "compound": "Cc1cc(C)cc(C(=O)N2CCC(Nc3nc(N)c(C(=O)c4c(F)cccc4F)s3)CC2)c1",
    "IC50 / nM": 14
  },
  {
    "compound": "CN1CCN(S(=O)(=O)N2CCC(Nc3nc(N)c(C(=O)c4c(F)cccc4F)s3)CC2)CC1",
    "IC50 / nM": 330
  },
  {
    "compound": "Cc1c[nH]c(-c2ccc(S(=O)(=O)N3CCC(Nc4nc(N)c(C(=O)c5c(F)cccc5F)s4)CC3)cn2)n1 [Example I2, Hydrochloride]",
    "IC50 / nM": 240
  },
  {
    "compound": "Nc1nc(NC2CCN(S(=O)(=O)CCc3ccccn3)CC2)sc1C(=O)c1c(F)cccc1F",
    "IC50 / nM": 650
  },
  {
    "compound": "Nc1nc(NC2CCN(C(=O)c3ccno3)CC2)sc1C(=O)c1c(F)cccc1F",
    "IC50 / nM": 750
  },
  {
    "compound": "Nc1nc(NC2CCN(C(=S)Oc3ccccc3)CC2)sc1C(=O)c1c(F)cccc1F",
    "IC50 / nM": 220
  }
]

* * *

Molecular target: CDK2/Cyclin A (Homo sapiens)
Experiment: Inhibition of CDK2/Cyclin A Retinoblastoma Kinase Activity
Settings: apparent Ki, CDK2/proteolyzed cyclin A, Rb fragment substrate, 25 μM ATP
Structures can show the parent of a compound that is named as a salt.
Known Ki of a selection of compounds
value-kind: Ki

[
  {
    "compound": "Nc1nc(NC2CCN(S(=O)(=O)c3ccc(N4CCC[C@@H]4CO)nc3)CC2)sc1C(=O)c1c(F)cccc1F [Example G13, Trifluoroacetic Acid Salt]",
    "target-or-system": "CDK2/Cyclin A (Homo sapiens)",
    "value-kind": "Ki",
    "value-measured": "< 1 nM"
  },
  {
    "compound": "CN(C)CC#Cc1ccc(S(=O)(=O)N2CCC(Nc3nc(N)c(C(=O)c4c(F)cccc4F)s3)CC2)cn1 [Example I11]",
    "target-or-system": "CDK2/Cyclin A (Homo sapiens)",
    "value-kind": "Ki",
    "value-measured": "< 0.5 nM"
  },
  {
    "compound": "N#Cc1ccc(S(=O)(=O)N2CCC(Nc3nc(N)c(C(=O)c4c(F)cccc4F)s3)CC2)cc1 [Example F18]",
    "target-or-system": "CDK2/Cyclin A (Homo sapiens)",
    "value-kind": "Ki",
    "value-measured": "< 1 nM"
  }
]

* * *

Target: CDK2/Cyclin A (Homo sapiens, UniProt P24941)
Assay: Inhibition of CDK2/Cyclin A Retinoblastoma Kinase Activity
Type: biochemical
Details: read-out: % inhibition of CDK2 (@ 0.05 μM), compound at 0.05 μM
value-kind: inhibition at 0.05 µM (%)

[
  {
    "smiles-text": "COC(=O)[C@@H]1CCCN1CCCS(=O)(=O)N1CCC(Nc2nc(N)c(C(=O)c3c(F)cccc3F)s2)CC1",
    "target-or-system": "CDK2/Cyclin A (Homo sapiens, UniProt P24941)",
    "value-measured": 79
  },
  {
    "smiles-text": "C=CCN1CCN(CCCS(=O)(=O)N2CCC(Nc3nc(N)c(C(=O)c4c(F)cccc4F)s3)CC2)CC1",
    "target-or-system": "CDK2/Cyclin A (Homo sapiens, UniProt P24941)",
    "value-measured": 82
  },
  {
    "smiles-text": "Nc1nc(NC2CCN(S(=O)(=O)CCCNCc3cccnc3)CC2)sc1C(=O)c1c(F)cccc1F",
    "target-or-system": "CDK2/Cyclin A (Homo sapiens, UniProt P24941)",
    "value-measured": 80
  },
  {
    "smiles-text": "Nc1nc(NC2CCN(S(=O)(=O)CCCN3CCNC(=O)CC3)CC2)sc1C(=O)c1c(F)cccc1F",
    "target-or-system": "CDK2/Cyclin A (Homo sapiens, UniProt P24941)",
    "value-measured": 82
  },
  {
    "smiles-text": "Nc1nc(NC2CCN(S(=O)(=O)CCCNCc3ccccn3)CC2)sc1C(=O)c1c(F)cccc1F",
    "target-or-system": "CDK2/Cyclin A (Homo sapiens, UniProt P24941)",
    "value-measured": 82
  },
  {
    "smiles-text": "Nc1nc(NC2CCN(S(=O)(=O)CCCNCCO)CC2)sc1C(=O)c1c(F)cccc1F",
    "target-or-system": "CDK2/Cyclin A (Homo sapiens, UniProt P24941)",
    "value-measured": 81
  },
  {
    "smiles-text": "COC(=O)CNCCCS(=O)(=O)N1CCC(Nc2nc(N)c(C(=O)c3c(F)cccc3F)s2)CC1",
    "target-or-system": "CDK2/Cyclin A (Homo sapiens, UniProt P24941)",
    "value-measured": 81
  }
]

* * *

Tested on: HCT-116 cell line
Test: Inhibition of cell growth, tetrazolium salt (MTT) assay
Format: cell-based
Settings: 0.25 μM compound; HCT-116; Table 4

[
  {
    "smiles-text": "COc1cccc(CC(=O)N2CCC(Nc3nc(N)c(C(=O)c4c(F)cccc4F)s3)CC2)c1",
    "HCT-116 % Inhibition at 0.25 μM, %": 33
  },
  {
    "smiles-text": "Nc1nc(NC2CCN(C(=O)c3ccncc3)CC2)sc1C(=O)c1c(F)cccc1F",
    "HCT-116 % Inhibition at 0.25 μM, %": 37
  },
  {
    "smiles-text": "Nc1nc(NC2CCN(C(=S)Oc3ccccc3)CC2)sc1C(=O)c1c(F)cccc1F",
    "HCT-116 % Inhibition at 0.25 μM, %": 25
  },
  {
    "smiles-text": "CCOC(=O)CCC(=O)N1CCC(Nc2nc(N)c(C(=O)c3c(F)cccc3F)s2)CC1",
    "HCT-116 % Inhibition at 0.25 μM, %": 39
  },
  {
    "smiles-text": "Nc1nc(NC2CCN(C(=O)Oc3ccc(Cl)cc3)CC2)sc1C(=O)c1c(F)cccc1F",
    "HCT-116 % Inhibition at 0.25 μM, %": 36
  },
  {
    "smiles-text": "CCOC(=O)CC(=O)N1CCC(Nc2nc(N)c(C(=O)c3c(F)cccc3F)s2)CC1",
    "HCT-116 % Inhibition at 0.25 μM, %": 25
  },
  {
    "smiles-text": "Nc1nc(NC2CCN(C(=O)c3cccc4ccccc34)CC2)sc1C(=O)c1c(F)cccc1F",
    "HCT-116 % Inhibition at 0.25 μM, %": 53
  },
  {
    "smiles-text": "Nc1nc(NC2CCN(C(=O)CCc3ccccc3)CC2)sc1C(=O)c1c(F)cccc1F",
    "HCT-116 % Inhibition at 0.25 μM, %": 19
  },
  {
    "smiles-text": "COCC(=O)N1CCC(Nc2nc(N)c(C(=O)c3c(F)cccc3F)s2)CC1",
    "HCT-116 % Inhibition at 0.25 μM, %": 30
  },
  {
    "smiles-text": "Nc1nc(NC2CCN(C(=O)c3cnc4ccccc4n3)CC2)sc1C(=O)c1c(F)cccc1F",
    "HCT-116 % Inhibition at 0.25 μM, %": 30
  },
  {
    "smiles-text": "Nc1nc(NC2CCN(C(=O)c3ccc(Cl)c(Cl)c3)CC2)sc1C(=O)c1c(F)cccc1F",
    "HCT-116 % Inhibition at 0.25 μM, %": 69
  },
  {
    "smiles-text": "CCCCOc1ccc(C(=O)N2CCC(Nc3nc(N)c(C(=O)c4c(F)cccc4F)s3)CC2)cc1",
    "HCT-116 % Inhibition at 0.25 μM, %": 50
  },
  {
    "smiles-text": "Nc1nc(NC2CCN(C(=O)c3ccccc3C(F)(F)F)CC2)sc1C(=O)c1c(F)cccc1F",
    "HCT-116 % Inhibition at 0.25 μM, %": 50
  },
  {
    "smiles-text": "CC(=O)OCC(=O)N1CCC(Nc2nc(N)c(C(=O)c3c(F)cccc3F)s2)CC1",
    "HCT-116 % Inhibition at 0.25 μM, %": 36
  }
]
